TARGET_ENTITY: Human Cav3.2 (Homo sapiens)
Sequence (O95180 whole entry): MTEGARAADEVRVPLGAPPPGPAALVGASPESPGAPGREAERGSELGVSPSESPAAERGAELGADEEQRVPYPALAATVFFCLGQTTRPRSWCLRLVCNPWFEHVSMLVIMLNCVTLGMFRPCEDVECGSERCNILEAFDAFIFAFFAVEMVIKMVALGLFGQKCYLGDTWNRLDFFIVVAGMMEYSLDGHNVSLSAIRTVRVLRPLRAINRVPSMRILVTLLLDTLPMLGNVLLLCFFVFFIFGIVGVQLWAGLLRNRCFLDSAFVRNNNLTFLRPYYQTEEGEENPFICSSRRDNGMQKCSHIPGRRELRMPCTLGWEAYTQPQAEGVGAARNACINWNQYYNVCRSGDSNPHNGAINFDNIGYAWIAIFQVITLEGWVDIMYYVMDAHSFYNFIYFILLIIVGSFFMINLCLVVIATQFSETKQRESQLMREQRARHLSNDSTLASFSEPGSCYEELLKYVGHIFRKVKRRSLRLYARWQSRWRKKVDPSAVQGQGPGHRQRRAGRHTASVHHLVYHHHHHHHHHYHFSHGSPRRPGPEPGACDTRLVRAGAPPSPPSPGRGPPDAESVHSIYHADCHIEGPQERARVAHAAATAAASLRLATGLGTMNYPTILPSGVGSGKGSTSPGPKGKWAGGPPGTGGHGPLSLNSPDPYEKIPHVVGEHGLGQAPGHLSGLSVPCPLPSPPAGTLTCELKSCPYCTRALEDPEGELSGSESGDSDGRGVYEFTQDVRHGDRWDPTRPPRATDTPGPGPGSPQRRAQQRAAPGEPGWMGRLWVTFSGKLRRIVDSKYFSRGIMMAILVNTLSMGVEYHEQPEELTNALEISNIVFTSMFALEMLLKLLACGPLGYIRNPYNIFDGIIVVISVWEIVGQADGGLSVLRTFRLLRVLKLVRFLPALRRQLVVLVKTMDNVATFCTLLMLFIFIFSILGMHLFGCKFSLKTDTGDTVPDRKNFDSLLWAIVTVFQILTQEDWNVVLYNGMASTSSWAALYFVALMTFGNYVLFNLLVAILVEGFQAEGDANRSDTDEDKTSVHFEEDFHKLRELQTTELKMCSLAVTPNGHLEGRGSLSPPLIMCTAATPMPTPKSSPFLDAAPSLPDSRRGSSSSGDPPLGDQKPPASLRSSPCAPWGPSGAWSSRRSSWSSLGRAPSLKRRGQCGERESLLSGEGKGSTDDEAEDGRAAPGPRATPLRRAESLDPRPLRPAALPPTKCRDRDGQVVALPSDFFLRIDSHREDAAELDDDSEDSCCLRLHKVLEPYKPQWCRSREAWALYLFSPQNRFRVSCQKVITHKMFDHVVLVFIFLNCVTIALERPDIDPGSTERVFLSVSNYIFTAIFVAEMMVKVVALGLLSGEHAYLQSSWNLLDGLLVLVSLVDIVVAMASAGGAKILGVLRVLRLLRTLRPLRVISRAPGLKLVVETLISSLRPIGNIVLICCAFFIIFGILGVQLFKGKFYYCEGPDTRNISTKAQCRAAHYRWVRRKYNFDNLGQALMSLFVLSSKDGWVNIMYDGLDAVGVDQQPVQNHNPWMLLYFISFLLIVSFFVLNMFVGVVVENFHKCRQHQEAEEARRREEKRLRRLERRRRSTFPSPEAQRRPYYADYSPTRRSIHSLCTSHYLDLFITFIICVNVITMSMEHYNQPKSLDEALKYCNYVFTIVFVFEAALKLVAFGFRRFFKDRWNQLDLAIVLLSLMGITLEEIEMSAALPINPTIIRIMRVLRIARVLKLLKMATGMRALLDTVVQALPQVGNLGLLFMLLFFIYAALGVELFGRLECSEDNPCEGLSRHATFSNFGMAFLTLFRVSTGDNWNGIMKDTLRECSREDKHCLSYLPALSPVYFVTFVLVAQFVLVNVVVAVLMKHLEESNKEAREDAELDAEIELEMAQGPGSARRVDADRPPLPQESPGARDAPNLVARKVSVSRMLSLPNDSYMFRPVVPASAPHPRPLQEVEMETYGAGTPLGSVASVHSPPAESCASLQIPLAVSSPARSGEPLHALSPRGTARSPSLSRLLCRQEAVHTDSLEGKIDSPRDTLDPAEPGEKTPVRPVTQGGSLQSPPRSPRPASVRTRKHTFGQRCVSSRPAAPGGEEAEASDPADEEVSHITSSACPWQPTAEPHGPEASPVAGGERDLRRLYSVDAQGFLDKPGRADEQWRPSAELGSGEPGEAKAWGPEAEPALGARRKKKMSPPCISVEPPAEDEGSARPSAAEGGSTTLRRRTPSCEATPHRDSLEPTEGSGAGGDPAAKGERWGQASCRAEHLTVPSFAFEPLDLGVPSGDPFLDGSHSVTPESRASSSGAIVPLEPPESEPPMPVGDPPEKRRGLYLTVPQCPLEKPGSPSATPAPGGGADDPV
PROTOCOL: T-type calcium ion channel inhibition, FLIPR method
Type: cell-based
CONDITION: Human Cav3.2 in stable HEK-293 cells, FLIPR Calcium 4 No-Wash kit
Would you kindly list log10 IC50 for each of these compounds?
Values below are the log10 of the recorded IC50, with µM as the unit.

| COMPOUND | TARGET_ENTITY | PROPERTY_MEASURED | RECORDED_VALUE |
| --- | --- | --- | --- |
| COC(=O)C1=C(C)NC(C)=C(C(=O)O[C@@]2(C)CCN(CCC(c3ccccc3)c3ccccc3)C2)[C@H]1c1cccc([N+](=O)[O-])c1 | Human Cav3.2 (Homo sapiens) | log10 IC50 | 0.29 |

Would you be so kind as to report log10 IC50 for each listed record?
1. COC(=O)C1=C(C)NC(C)=C(C(=O)O[C@@]2(C)CCN(CC(c3ccccc3)c3ccccc3)C2)[C@H]1c1cccc([N+](=O)[O-])c1
2. COC(=O)C1=C(C)NC(C)=C(C(=O)O[C@H]2CCN(Cc3ccccc3)C2)[C@H]1c1cccc([N+](=O)[O-])c1 [barnidipine, reference compound]
3. COC(=O)C1=C(C)NC(C)=C(C(=O)O[C@]2(C)CCN(CC(c3ccccc3)c3ccccc3)C2)[C@H]1c1cccc([N+](=O)[O-])c1

[1.83, 1.49, 1.88]

So what does the record say about log10 IC50 for "COC(=O)C1=C(C)NC(C)=C(C(=O)O[C@]2(C)CCN(CCC(c3ccccc3)c3ccccc3)C2)[C@H]1c1cccc([N+](=O)[O-])c1" ? 0.97
